Provide the reported protein stability index of each item.
B1: IMPA1 (parent)
chain: FIGEESVAAGEKSILTDNPTWIID

Variants of: B1
Assay: protein stability index of a GFP-peptide fusion (GPS, HEK-293T) (PSI 1-6); higher = more stable;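 also: lentivirally expressed fusions sorted by FACS into six bins by GFP to DsRed ratio, PSI derived from sequencing read proportions per bin multiplied by bin number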
Conditions: c terminus: a fixed tail appended
The answer should be written as a number, with no unit following it.

Data request: Entry S6A has what protein stability index?
Data returned: 2.01

Data request: Next variant: S6G
Data returned: 2.42

Data request: // repeat for S6I and report
Data returned: 1.73

Data request: Okay, and D17I ?
Data returned: 2.7
